Test system: human erythrocytes
Assay: Hemolytic assay (EH50)
Type: cell-based
Conditions: concentration that led to 50% hemolysis of human erythrocytes; one hour at 37° C.
endpoint: EH50
Please give the number followed by its unit.

Solved entries:
compound	EH50
COC(=O)[C@H]1[C@@H]2C[C@@H](O[C@@H]3O[C@H](C)[C@@H](O)[C@H](N(CCCN)CCCN)[C@@H]3O)/C=C/C=C/C=C/C=C/C=C/C=C/C=C/[C@H](C)[C@@H](O)[C@@H](C)[C@H](C)OC(=O)C[C@H](O)C[C@H](O)CC[C@@H](O)[C@H](O)C[C@H](O)C[C@](O)(C[C@@H]1O)O2	50 µM
C[C@@H]1[C@H](O)[C@@H](C)/C=C/C=C/C=C/C=C/C=C/C=C/C=C/[C@H](O[C@@H]2O[C@H](C)[C@@H](O)[C@H](N(CCCN)CCCN)[C@@H]2O)C[C@@H]2O[C@](O)(C[C@@H](O)C[C@@H](O)[C@H](O)CC[C@@H](O)C[C@@H](O)CC(=O)O[C@H]1C)C[C@H](O)[C@H]2C(=O)O	10 µM
C[C@@H]1[C@H](O)[C@@H](C)/C=C/C=C/C=C/C=C/C=C/C=C/C=C/[C@H](O[C@@H]2O[C@H](C)[C@@H](O)[C@H](N(CCCN)CCCN)[C@@H]2O)CC2O[C@](O)(C[C@@H](O)C[C@@H](O)[C@H](O)CC[C@@H](O)C[C@@H](O)CC(=O)O[C@H]1C)C[C@H](O)[C@H]2C(=O)NCCN	30 µM

Kindly indicate its recorded EH50. Item: C[C@@H]1[C@H](O)[C@@H](C)/C=C/C=C/C=C/C=C/C=C/C=C/C=C/[C@H](O[C@@H]2O[C@H](C)[C@@H](O)[C@H](N)[C@@H]2O)C[C@@H]2O[C@](O)(C[C@@H](O)C[C@@H](O)[C@H](O)CC[C@@H](O)C[C@@H](O)CC(=O)O[C@H]1C)C[C@H](O)[C@H]2C(=O)O [AmB, Amphotericin B, reference compound] 4.0 µM

Where do these numbers come from? They come from patent US20090186838A1.
